Assay: Pharmacokinetic assay in Balb/c mice (plasma and brain tissue)
Type: in vivo
Conditions: Plasma, p.o. 5 mg/kg

[
  {
    "compound": "O=C(NC1CC(CCN2CCN(c3cccc(Cl)c3Cl)CC2)C1)C1(O)CC1 (centres unmarked)",
    "Peak time tmax / min": 30
  },
  {
    "compound": "O=C(N[C@H]1C[C@H](CCN2CCN(c3cccc(Cl)c3Cl)CC2)C1)c1cccc2ncccc12 [Example 19A]",
    "Peak time tmax / min": 30
  },
  {
    "compound": "CCN(C)C(=O)NC1CC(CCN2CCN(c3cccc4sccc34)CC2)C1 (centres unmarked)",
    "Peak time tmax / min": 30
  },
  {
    "compound": "O=C(N[C@H]1C[C@H](CCN2CCN(c3cccc(Cl)c3Cl)CC2)C1)C1(O)CC1",
    "Peak time tmax / min": 30
  },
  {
    "compound": "O=C(NC1CC(CCN2CCCN(c3cccc(Cl)c3Cl)CC2)C1)c1ccco1 (centres unmarked)",
    "Peak time tmax / min": 60
  },
  {
    "compound": "O=C(N[C@H]1C[C@@H](CCN2CCN(c3cccc(Cl)c3Cl)CC2)C1)c1ncco1 [Example 12B]",
    "Peak time tmax / min": 30
  },
  {
    "compound": "O=C(N[C@H]1C[C@H](CCN2CCN(c3cccc(Cl)c3Cl)CC2)C1)c1nccs1",
    "Peak time tmax / min": 60
  },
  {
    "compound": "O=C(NC1CC(CCN2CCN(c3cccc(Cl)c3Cl)CC2)C1)c1nccs1 (centres unmarked)",
    "Peak time tmax / min": 30
  }
]

###

Test: Pharmacokinetic assay in Balb/c mice (plasma and brain tissue)
Assay type: in vivo
Conditions: Plasma, p.o. 5 mg/kg
# maps each entry to its Peak time tmax
measure.name: Peak time tmax (min)

[
  {
    "compound": "O=C(N[C@H]1C[C@@H](CCN2CCN(c3cccc(Cl)c3Cl)CC2)C1)C1(O)CC1",
    "reported": 30
  },
  {
    "compound": "O=C(N[C@H]1C[C@H](CCN2CCN(c3cccc(Cl)c3Cl)CC2)C1)c1ncco1 [Example 12A]",
    "reported": 30
  },
  {
    "compound": "O=C(NC1CC(CCN2CCN(c3cccc(Cl)c3Cl)CC2)C1)c1ncco1 (stereo not drawn)",
    "reported": 30
  }
]
